- study target: human inducible NOS (iNOS) (Homo sapiens)
- procedure summary: iNOS (Human) enzyme assay, radiometric conversion of [3H]L-arginine to [3H]L-citrulline
- details: recombinant human enzyme, 37° C., 45 min
reported property: pIC50
Convention used: pIC50 is expressed as -log10 of the molar concentration.

Below are worked cases with known answers.
>  <compound>
CN1C2CCC1CC(n1ccc3cc(NC(=N)c4cccs4)ccc31)C2 (stereo not drawn)

>  <reading>
4.96

$$$$
>  <compound>
CN1CCCC1CCn1c(-c2ccc([N+](=O)[O-])cc2)cc2cc(NC(=N)c3cccs3)ccc21 (stereo not drawn)

>  <reading>
4.28

$$$$
>  <compound>
CCN(CC)CCn1c(Cc2ccc(OC(F)(F)F)cc2)cc2cc(NC(=N)c3cccs3)ccc21

>  <reading>
4.77

$$$$
>  <compound>
CN1CCCC(n2ccc3cc(NC(=N)c4ccco4)ccc32)CC1 (single isomer, unassigned) [(+)−55]

>  <reading>
5.00

$$$$
>  <compound>
CN1CCCC1CCn1ccc2cc(NC(=N)c3cccs3)ccc21 (single isomer, unassigned) [(+)−57]

>  <reading>
4.66

$$$$

The compound listed as CCNC1CCC(c2c[nH]c3cc(NC(=N)c4cccs4)ccc23)CC1 (stereo not drawn) shows pIC50 equal to 5.38

Given item CN1CCCC1CCn1ccc2cc(NC(=N)c3cccs3)ccc21 (single isomer, unassigned) [(−)−57] , the value recorded as its pIC50 is 5.77

CN1CCCC(n2ccc3cc(NC(=N)c4cccs4)ccc32)CC1 (stereo not drawn) yielded pIC50 of 5.12

Input CN1CCCC(n2ccc3cc(NC(=N)c4ccco4)ccc32)CC1 (stereo not drawn) [Compound 54] . Output pIC50: 4.31

---

Overview of recorded Ratio e/n for various compounds
- study target: human neuronal constitutive NOS (nNOS) (Homo sapiens)
- procedure summary: nNOS (Human) enzyme assay, radiometric conversion of [3H]L-arginine to [3H]L-citrulline
- Type: biochemical
- details: human eNOS / human nNOS
Answer with the value's number alone.

>  <compound>
CN1CC=C(c2c[nH]c3cc(NC(=N)c4cccs4)ccc23)CC1 [Compound 107]

>  <study target>
human neuronal constitutive NOS (nNOS) (Homo sapiens)

>  <Ratio e/n>
26.36

$$$$

Summary for this compound, CCNC1CCC(c2c[nH]c3cc(NC(=N)c4cccs4)ccc23)CC1 (stereo not drawn) [Compound 129] : Ratio e/n is 57.08

Lookup result for CN1C2CCC1CC(n1ccc3cc(NC(=N)c4cccs4)ccc31)C2 (stereo not drawn) [Compound 86] ; measured Ratio e/n: 24.70

Looking up N=C(Nc1ccc2c(ccn2-c2cccnc2)c1)c1cccs1 [Compound 74] , I found its Ratio e/n recorded as 6.74

Looking up N=C(Nc1ccc2c(ccn2-c2ccc(N)nc2)c1)c1cccs1 [Compound 77] , I found its Ratio e/n recorded as 5.54

Ratio e/n reported for this compound CN1CCCC1CCn1ccc2cc(NC(=N)N[N+](=O)[O-])ccc21 (stereo not drawn) [Compound 59] : 6.00

Ratio e/n reported for this compound CN1CCCC1CCn1c(Cc2ccc(OC(F)(F)F)cc2)cc2cc(NC(=N)c3cccs3)ccc21 (stereo not drawn) [Compound 14] : 4.90

// Ratio e/n lookup, compound = CN1CCC(c2c[nH]c3cc(NC(=N)c4cccs4)ccc23)CC1 [Compound 108] , result: 23.94

response.value for CC(C)NC1CCC(c2c[nH]c3cc(NC(=N)c4cccs4)ccc23)CC1 (stereo not drawn) [Compound 142] (field: Ratio e/n) = 23.6

---

- study target: human neuronal constitutive NOS (nNOS) (Homo sapiens)
- procedure summary: nNOS (Human) enzyme assay, radiometric conversion of [3H]L-arginine to [3H]L-citrulline
- Assay type: biochemical
- details: recombinant human enzyme, 37° C., 45 min; read-out: Human nNOS
reported property: IC50 (nM)
Kindly answer with a numeric value in nM, unit omitted.

Known results for compounds:
>  <compound>
CCCN[C@H]1CC[C@@H](c2c[nH]c3cc(NC(=N)c4cccs4)ccc32)CC1

>  <study target>
human neuronal constitutive NOS (nNOS) (Homo sapiens)

>  <IC50, nM>
200

$$$$
>  <compound>
CNC1CCC(c2c[nH]c3cc(NC(=N)c4cccs4)ccc23)CC1 (stereo not shown)

>  <study target>
human neuronal constitutive NOS (nNOS) (Homo sapiens)

>  <IC50, nM>
320

$$$$
>  <compound>
CCN(CC)CCn1c(Cc2ccc(OC(F)(F)F)cc2)cc2cc(NC(=N)c3cccs3)ccc21

>  <study target>
human neuronal constitutive NOS (nNOS) (Homo sapiens)

>  <IC50, nM>
800

$$$$

Attention now turns to another entry.
Value of IC50 reported for the compound Cc1cc2cc(NC(=N)c3cccs3)ccc2n1CCC1CCCN1C (stereo not shown) is 140

---

- study target: human neuronal constitutive NOS (nNOS) (Homo sapiens, UniProt P29475)
- Sequence (P29475 whole entry): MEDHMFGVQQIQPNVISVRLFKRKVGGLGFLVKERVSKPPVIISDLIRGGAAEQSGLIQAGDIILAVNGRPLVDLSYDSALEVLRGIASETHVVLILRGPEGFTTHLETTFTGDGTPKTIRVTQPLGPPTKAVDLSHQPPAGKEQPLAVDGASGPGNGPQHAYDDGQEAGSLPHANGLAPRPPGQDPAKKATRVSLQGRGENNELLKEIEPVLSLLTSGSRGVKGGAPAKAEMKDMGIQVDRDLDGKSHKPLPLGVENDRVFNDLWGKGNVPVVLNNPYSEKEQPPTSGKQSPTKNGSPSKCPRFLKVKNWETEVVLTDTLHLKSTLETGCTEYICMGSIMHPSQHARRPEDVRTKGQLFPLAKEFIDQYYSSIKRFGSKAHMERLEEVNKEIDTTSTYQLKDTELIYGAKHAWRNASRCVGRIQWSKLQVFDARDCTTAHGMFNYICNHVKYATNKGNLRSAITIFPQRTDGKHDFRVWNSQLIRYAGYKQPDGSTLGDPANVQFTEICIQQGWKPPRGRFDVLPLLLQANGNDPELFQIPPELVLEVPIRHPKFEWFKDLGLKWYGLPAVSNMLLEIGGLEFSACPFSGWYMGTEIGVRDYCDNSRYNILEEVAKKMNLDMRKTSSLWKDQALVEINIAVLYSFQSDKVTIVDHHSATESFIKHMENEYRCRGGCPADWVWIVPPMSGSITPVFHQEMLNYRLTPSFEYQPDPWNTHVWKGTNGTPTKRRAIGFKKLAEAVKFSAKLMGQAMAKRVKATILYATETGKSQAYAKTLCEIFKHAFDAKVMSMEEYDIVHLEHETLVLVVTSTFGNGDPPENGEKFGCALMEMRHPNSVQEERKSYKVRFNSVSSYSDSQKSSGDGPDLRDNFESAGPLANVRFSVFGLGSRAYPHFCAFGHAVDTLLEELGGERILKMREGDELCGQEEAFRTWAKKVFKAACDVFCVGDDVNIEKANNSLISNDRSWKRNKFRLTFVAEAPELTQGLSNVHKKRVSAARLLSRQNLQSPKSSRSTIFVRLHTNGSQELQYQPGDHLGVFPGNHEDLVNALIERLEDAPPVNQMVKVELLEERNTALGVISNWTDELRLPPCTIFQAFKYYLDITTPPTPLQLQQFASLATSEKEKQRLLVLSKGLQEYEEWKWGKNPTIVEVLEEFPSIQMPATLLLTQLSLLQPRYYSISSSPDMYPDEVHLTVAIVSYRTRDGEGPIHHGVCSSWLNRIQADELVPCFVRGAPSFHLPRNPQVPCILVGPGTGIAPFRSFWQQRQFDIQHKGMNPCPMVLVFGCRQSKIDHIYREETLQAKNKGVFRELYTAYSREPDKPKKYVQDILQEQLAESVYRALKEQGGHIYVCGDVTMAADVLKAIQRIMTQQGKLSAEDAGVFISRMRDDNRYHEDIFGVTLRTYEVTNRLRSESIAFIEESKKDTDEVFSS
- procedure summary: nNOS (Human) enzyme assay, radiometric conversion of [3H]L-arginine to [3H]L-citrulline
- Format: biochemical
- details: human eNOS / human nNOS
Ratio e/n strictly under 30 means t; at 30 or over means f.

Solved entries (count: 3):
>  <compound>
CNC1CC=C(c2c[nH]c3cc(NC(=N)c4cccs4)ccc23)CC1 (centres unmarked)

>  <group label>
f

$$$$
>  <compound>
CCCN[C@H]1CC[C@@H](c2c[nH]c3cc(NC(=N)c4cccs4)ccc32)CC1

>  <group label>
t

$$$$
>  <compound>
CCNC1CC=C(c2c[nH]c3cc(NC(=N)c4cccs4)ccc23)CC1 (centres unmarked)

>  <group label>
t

$$$$

Qu. Ratio e/n strictly < 30 for this compound? Cc1cc2cc(NC(=N)c3cccs3)ccc2n1CCC1CCCN1C (centres unmarked)
Ans. t

---

- study target: human neuronal constitutive NOS (nNOS) (Homo sapiens, UniProt P29475)
- procedure summary: nNOS (Human) enzyme assay, radiometric conversion of [3H]L-arginine to [3H]L-citrulline
- Type: biochemical
- details: human eNOS / human nNOS
reported property: Ratio e/n
Output: the number by itself.

Field: example entries. Status: answers known.
>  <compound>
N=C(Nc1ccc2c(C3CN4CCC3CC4)c[nH]c2c1)c1cccs1 (stereo not shown) [Compound 112]

>  <Ratio e/n>
27.78

$$$$
>  <compound>
CN(C)CCn1ccc2cc(NC(=N)c3cccs3)ccc21 [Compound 93]

>  <Ratio e/n>
21.3

$$$$
>  <compound>
N=C(Nc1ccc2c(ccn2C2CCOCC2)c1)c1cccs1 [Compound 90]

>  <Ratio e/n>
9.34

$$$$

The value of Ratio e/n measured for the compound N=C(Nc1ccc2c(ccn2CCCN2CCOCC2)c1)c1cccs1 [Compound 40] turned out to be 9.09

So, N=C(Nc1ccc2c(ccn2CCN2CCCCC2)c1)c1cccs1 [Compound 96] ? Its Ratio e/n was 53.80

The compound identified as CN1CCCCC1CCn1ccc2cc(NC(=N)c3cccs3)ccc21 (stereo not shown) [Compound 62] registered its Ratio e/n at 68.01

Note to self: Ratio e/n recorded for Cc1cc2cc(NC(=N)c3cccs3)ccc2n1CCN(C)C [Compound 25] was 3.88

GET /value?item= CNC1CCC(c2c[nH]c3cc(NC(=N)c4cccs4)ccc23)CC1 (stereo not shown) [Compound 123] &field=Ratio e/n returns 28.96

Reported Ratio e/n of Cc1cc2cc(NC(=N)c3cccs3)ccc2n1CCN1CCCC1 [Compound 28] : 7.41

// Ratio e/n value for CN1CCCC1CCn1c(Cc2ccccc2)cc2cc(NC(=N)c3cccs3)ccc21 (stereo not shown) [Compound 6] : 41.57

---

Consider the following molecules and their measured IC50 readings.
- study target: human endothelial constitutive NOS (eNOS) (Homo sapiens, UniProt P29474)
- procedure summary: eNOS (Human) enzyme assay, radiometric conversion of [3H]L-arginine to [3H]L-citrulline
- Type: biochemical
- details: recombinant human enzyme, 37° C., 45 min; read-out: Human eNOS
Number plus unit, in that order.

>  <molecule>
N=C(Nc1ccc2c(ccn2-c2ccc(N)nc2)c1)c1cccs1 [Compound 77]

>  <IC50>
3.08 µM

$$$$

// recorded IC50 for CN1CCCC(n2ccc3cc(NC(=N)c4ccco4)ccc32)CC1 (single isomer, unassigned) [(−)−55] : 28.5 µM

// IC50 lookup, molecule = CN(C)CCn1ccc2cc(NC(=N)c3cccs3)ccc21 [Compound 93] , result: 3.7 µM

---

- study target: human inducible NOS (iNOS) (Homo sapiens)
- procedure summary: iNOS (Human) enzyme assay, radiometric conversion of [3H]L-arginine to [3H]L-citrulline
- details: recombinant human enzyme, 37° C., 45 min
Each record here notes measured pIC50.
Scale: pIC50 equals -log10([C]), with [C] in mol/L.

Recorded pIC50, per entry:
>  <molecule>
CN1CCCC1CCn1c(Cc2ccc(OC(F)(F)F)cc2)cc2cc(NC(=N)c3cccs3)ccc21 (stereo not shown)

>  <pIC50>
4.03

$$$$
>  <molecule>
CN1CCCC(n2ccc3cc(NC(=N)c4ccco4)ccc32)CC1 (single isomer, unassigned) [(−)−55]

>  <pIC50>
4.34

$$$$
>  <molecule>
N=C(Nc1ccc2c(ccn2C2CN3CCC2CC3)c1)c1cccs1 (stereo not shown)

>  <pIC50>
4.54

$$$$

Could you now consider this next molecule?
For record "CCCN[C@H]1CC[C@@H](c2c[nH]c3cc(NC(=N)c4cccs4)ccc32)CC1" the listed pIC50 is 5.08
